These data points were gathered from patent US20180334496A1.

Measured koff, listed per entry for reference.
TARGET_ENTITY: T1, serum purified human Complement Factor D (human, UniProt P00746 26-253)
T1 construct: Serum purified protein flowed over the captured antibodies; also called CFD; human CFD
TEST_SUMMARY: SPR Biacore, antibody on protein A chip, single cycle kinetics, 37 C;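 further: antibodies captured on the protein A surface to roughly 70 RU in HBS-EP+ buffer, with rate and affinity constants fitted using BIAevaluation software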
// units = s⁻¹; emit number, no label

{"columns": ["BINDER", "REPORTED_PROPERTY", "UNIT_STRING", "READING"],
 "data": [
  ["54V56V / 101V (antibody, V domains shown, KCD119 TAF variant; full antibody captured on protein A) VH: EVQLVESGGGLVQPGGSLRLSCAASGYTFTDYYMNWVRQAPGKGLEWIGDINPVTVDTSYNADFKRRFTFSLDTSKSTAYLQMNSLRAEDTAVYYCTREGPSFAYWGQGTLVTVSS VL: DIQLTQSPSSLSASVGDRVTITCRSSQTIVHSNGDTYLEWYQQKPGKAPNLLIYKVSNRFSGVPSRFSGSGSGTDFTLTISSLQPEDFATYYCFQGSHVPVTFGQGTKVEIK", "koff", "s⁻¹", 0.00104]
]}

Let's switch to this binder now.
So for 48V54V59D / 32W60W101V (antibody, V domains shown, KCD119 TAF variant; full antibody captured on protein A) VH: EVQLVESGGGLVQPGGSLRLSCAASGYTFTDYYMNWVRQAPGKGLEWVGDINPVTGDTDYNADFKRRFTFSLDTSKSTAYLQMNSLRAEDTAVYYCTREGPSFAYWGQGTLVTVSS VL: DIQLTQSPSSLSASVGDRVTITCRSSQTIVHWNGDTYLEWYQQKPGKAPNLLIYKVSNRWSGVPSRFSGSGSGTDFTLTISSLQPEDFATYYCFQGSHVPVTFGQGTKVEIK , the logged koff turned out to be 0.000278
